Hi there, I'd appreciate the recorded IC50 for every entry that follows.
Molecular target: K-Ras G12C (Homo sapiens (Human), UniProt P01116+P62937, G12C)
Sequence (P01116-2 other isoform, or with tags, fused parts or gaps G12C): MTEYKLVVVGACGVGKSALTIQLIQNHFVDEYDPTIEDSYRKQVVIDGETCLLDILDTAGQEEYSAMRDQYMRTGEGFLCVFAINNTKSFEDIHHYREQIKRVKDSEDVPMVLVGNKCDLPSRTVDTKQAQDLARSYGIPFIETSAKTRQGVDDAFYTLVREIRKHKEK
Sequence (P62937 whole entry): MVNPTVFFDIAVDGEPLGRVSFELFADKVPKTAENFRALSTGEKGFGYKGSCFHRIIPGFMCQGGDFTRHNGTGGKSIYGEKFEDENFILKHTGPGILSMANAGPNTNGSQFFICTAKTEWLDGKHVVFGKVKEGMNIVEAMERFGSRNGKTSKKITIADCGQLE
Experiment: Ras-Raf (BRAF RBD) disruption / FRET / MOA assay, KRAS G12C
Assay type: biochemical
Conditions: KRAS G12C; Ras-Raf disruption/FRET/MOA assay; read-out: IC50* KRAS G12C FRET data

Record CCn1c(-c2cccnc2[C@H](C)OC)c2c3cc(ccc31)-c1cc(O)cc(c1)C[C@H](NC(=O)[C@H](C(C)C)N1CC[C@@]3(CCN(C(=O)/C=C/CN(C)C)C3)C1=O)C(=O)N1CCC[C@H](N1)C(=O)OCC(C)(C)C2 (atropisomer, axis not shown) . Reported IC50: 10 to 100 nM

For this compound ( C=CC(=O)N1CC2(CCN2C(=O)N(C)[C@H](C(=O)N[C@H]2Cc3cccc(n3)-c3ccc4c(c3)c(c(-c3cccnc3[C@H](C)OC)n4CC)CC(C)(C)COC(=O)[C@@H]3CCCN(N3)C2=O)C(C)C)C1 (atropisomer, axis not shown) ), measured IC50 is 10 to 100 nM
